test system: Noggin (protein binding on small-molecule microarray); assay: Noggin binders on small-molecule microarray, primary screen, biochemical, 635/667 nm fluorescence (AID 1095); conditions: 635 nm fluorescence, higher = more signal;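 note: score merges 667 nm feature fluorescence with signal to noise over triplicate slides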
Entry flag: criterion met if composite z-score reaches 0.3; criterion not met if it does not.

Quick check, composite z-score >= 0.3? `C=CCOC(=O)[C@@H]1[C@H]2C(=O)O[C@H](c3ccccc3)[C@H](c3ccccc3)N2[C@H](c2ccc(OCCOC(=O)[C@@H]3C[C@@H]4C(=O)NCC(=O)N4[C@@H]3c3ccc(O)cc3)cc2)[C@@]12C(=O)Nc1ccc(I)cc12`
criterion met

====

system: Sonic hedgehog protein (Shh); test: small-molecule binders of Shh protein, primary screen, biochemical, small-molecule microarray, 635/667 nm fluorescence (AID 1151); settings: small-molecule microarray binding, 635 nm fluorescence; higher = more signal;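 note: Shh protein binding to compounds spotted on small-molecule microarray slides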
Entry flag: True if composite z-score reaches -0.2; False if it does not.

A selection of reference data follows.
>  <MOLECULE>
NC(=O)NCC#Cc1ccc2c(c1)[C@]1(C(=O)N2)[C@H](C(=O)Nc2nc3ccccc3s2)[C@H]2C(=O)O[C@H](c3ccccc3)[C@H](c3ccccc3)N2[C@@H]1c1ccccc1OCCO

>  <DISCRETE_LABEL>
True

$$$$
>  <MOLECULE>
COC(=O)[C@@]1(Cc2ccc(OC)cc2)[C@H]2c3cc(C(=O)N4CCCC4)n(CCN4CNCC4=O)c3C[C@H]2CN1C(=O)c1ccccc1

>  <DISCRETE_LABEL>
False

$$$$
>  <MOLECULE>
CCCC[C@@H]1C[C@H]1[C@@H](NC(=O)c1ccccc1)c1ccc(C(=O)OC)cc1

>  <DISCRETE_LABEL>
False

$$$$

Quick check, composite z-score >= -0.2? `CN(C)CCCCCCNC(=O)[C@@H]1C[C@@H]2C(=O)N[C@@H](Cc3ccccc3)C(=O)N2[C@@H]1c1ccc(O)cc1`
True

Quick check, composite z-score >= -0.2? `CCCCCCc1nc(-c2cc(C)c(OC)c(C)c2)cc2c1[Si](C(C)C)(C(C)C)OC2`
True

Quick check, composite z-score >= -0.2? `CC(C)OC(=O)C=C1C[C@@H](c2ccccn2)O[C@@H](c2ccccn2)O1`
True

Quick check, composite z-score >= -0.2? `CC(C)N1C(=O)[C@@]2(Cc3ccccc31)c1ccccc1C(=O)N(Cc1ccccc1Cl)[C@H]2c1ccc(CO)cc1`
False

Quick check, composite z-score >= -0.2? `CC(C)=CCN[C@H](CO)c1ccccc1`
True
